Quick reference: Cmax of the listed items.
# runDescription: Pharmacokinetics study in mice
# Assay type: in vivo
# recordedConditions: mouse; Balb/c mice, male, oral 20 mg/kg suspended in olive oil, plasma, LC-MS/MS; read-out: Cmax (maximum plasma concentration)

{"compound": "CO[C@@H]1CC(C)(C)CC2C3=CCC4[C@@]5(C)CC[C@H](O)[C@](C)(C(=O)O)C5CC[C@@]4(C)[C@]3(C)CC[C@]21C (stereo partly shown) [Compound 14]", "Cmax": "4800 ng/mL"}
{"compound": "CC1(C)C[C@@H](OCc2ccccc2)[C@]2(C)CC[C@]3(C)C(=CCC4[C@@]5(C)CC[C@H](O)[C@](C)(C(=O)O)C5CC[C@]43C)[C@@H]2C1 (stereo partly shown) [Compound 12]", "Cmax": "4800 ng/mL"}
{"compound": "C=CCO[C@@H]1CC(C)(C)C[C@H]2C3=CCC4[C@@]5(C)CC[C@H](O)[C@](C)(C(=O)O)C5CC[C@@]4(C)[C@]3(C)CC[C@@]12C (stereo partly shown) [Compound 13]", "Cmax": "4800 ng/mL"}
{"compound": "C#CCO[C@@H]1CC(C)(C)C[C@H]2C3=CCC4[C@@]5(C)CC[C@H](O)[C@](C)(CO)C5CC[C@@]4(C)[C@]3(C)CC[C@@]12C (stereo partly shown) [Compound 2]", "Cmax": "2800 ng/mL"}

---

# runDescription: Pharmacokinetics study in mice
# Type: in vivo
# recordedConditions: mouse; Balb/c mice, male, oral 20 mg/kg suspended in olive oil, plasma, LC-MS/MS; read-out: AUC (area under the plasma drug concentration-time curve)
Quick reference: AUC of the listed items.

{"molecule": "C=CCO[C@@H]1CC(C)(C)C[C@H]2C3=CCC4[C@@]5(C)CC[C@H](O)[C@](C)(C(=O)O)C5CC[C@@]4(C)[C@]3(C)CC[C@@]12C (stereo partly shown) [Compound 13]", "unit": "ng·h/mL", "AUC": 74900}
{"molecule": "C#CCO[C@@H]1CC(C)(C)C[C@H]2C3=CCC4[C@@]5(C)CC[C@H](O)[C@](C)(CO)C5CC[C@@]4(C)[C@]3(C)CC[C@@]12C (stereo partly shown) [Compound 2]", "unit": "ng·h/mL", "AUC": 44700}
{"molecule": "CC1(C)C[C@@H](OCc2ccccc2)[C@]2(C)CC[C@]3(C)C(=CCC4[C@@]5(C)CC[C@H](O)[C@](C)(C(=O)O)C5CC[C@]43C)[C@@H]2C1 (stereo partly shown) [Compound 12]", "unit": "ng·h/mL", "AUC": 74700}
{"molecule": "CO[C@@H]1CC(C)(C)CC2C3=CCC4[C@@]5(C)CC[C@H](O)[C@](C)(C(=O)O)C5CC[C@@]4(C)[C@]3(C)CC[C@]21C (stereo partly shown) [Compound 14]", "unit": "ng·h/mL", "AUC": 81100}

---

# runDescription: Pharmacokinetics study in mice
# Format: in vivo
# recordedConditions: mouse; Balb/c mice, male, oral 20 mg/kg suspended in olive oil, plasma, LC-MS/MS; read-out: t1/2 (plasma half-life) (converted)

{"compound": "C=CCO[C@@H]1CC(C)(C)C[C@H]2C3=CCC4[C@@]5(C)CC[C@H](O)[C@](C)(C(=O)O)C5CC[C@@]4(C)[C@]3(C)CC[C@@]12C (stereo partly shown) [Compound 13]", "half-life": "13 h"}
{"compound": "CC1(C)C[C@@H](OCc2ccccc2)[C@]2(C)CC[C@]3(C)C(=CCC4[C@@]5(C)CC[C@H](O)[C@](C)(C(=O)O)C5CC[C@]43C)[C@@H]2C1 (stereo partly shown) [Compound 12]", "half-life": "11.9 h"}
{"compound": "C#CCO[C@@H]1CC(C)(C)C[C@H]2C3=CCC4[C@@]5(C)CC[C@H](O)[C@](C)(CO)C5CC[C@@]4(C)[C@]3(C)CC[C@@]12C (stereo partly shown) [Compound 2]", "half-life": "10 h"}
{"compound": "CO[C@@H]1CC(C)(C)CC2C3=CCC4[C@@]5(C)CC[C@H](O)[C@](C)(C(=O)O)C5CC[C@@]4(C)[C@]3(C)CC[C@]21C (stereo partly shown) [Compound 14]", "half-life": "13.9 h"}
